Origin of measurements: patent US10617680B2

- study_system: BRD4 (Homo sapiens (Human))
- experiment: In vitro enzyme inhibition assay - BRD4 inhibition
- reported_conditions: BRD4 BD1, Table 30
What IC50 was measured for each of the following?

Data request: Output IC50 of Cc1cc(-c2cnn(C(c3ccccc3)C3CC3)c2)cn(C)c1=O (stereo not drawn)
Data returned: 0.5 to 5 µM

Data request: Output IC50 of `Cc1cc(-c2cc(=O)n(C)cc2-c2cnn(Cc3ccccc3)c2)[nH]n1`
Data returned: > 5 µM

Data request: Output IC50 of CC(c1ccccc1)n1cc(-c2cn(C)c(=O)cc2N2CCCC2)cn1 (stereo not drawn)
Data returned: 0.5 to 5 µM

Data request: Output IC50 of `Cn1cc(-c2cnn(-c3ccccc3C(=O)O)c2)c(-c2ccccc2)cc1=O`
Data returned: > 5 µM

Data request: Output IC50 of `Cn1cc(-c2cnn(Cc3ccccc3)c2)c(-c2ccon2)cc1=O`
Data returned: > 5 µM

Data request: Output IC50 of CC(c1ccccc1)n1cc(-c2cn(C)c(=O)cc2N2CCOCC2)cn1 (stereo not drawn)
Data returned: 0.5 to 5 µM

Data request: Output IC50 of `Cn1cc(-c2cnn(Cc3ccccc3)c2)c(-n2ccnc2)cc1=O`
Data returned: > 5 µM

Data request: Output IC50 of `Cn1cc(-c2cnn(CS(C)(=O)=O)c2)c(-c2ccccc2)cc1=O`
Data returned: > 5 µM

Data request: Output IC50 of `CCNc1ncc(-c2cc(=O)n(C)cc2-c2cnn(-c3ccccc3C#N)c2)cn1`
Data returned: 0.5 to 5 µM

Data request: Output IC50 of `Cn1cc(-c2cnn(Cc3ccccc3)c2)c(N2CC[C@@H](C(=O)O)C2)cc1=O`
Data returned: > 5 µM

Data request: Output IC50 of `Cn1cc(-c2cnn(-c3ccccc3S(C)(=O)=O)c2)c(-c2ccc(Cl)cc2)cc1=O`
Data returned: > 5 µM

Data request: Output IC50 of `Cc1cc(-c2nc(NS(C)(=O)=O)ncc2Oc2ccc(F)cc2F)cn(C)c1=O`
Data returned: < 0.5 µM

###

What pIC50 was measured for each of the following?
- study_system: CBP (Homo sapiens (Human))
- Sequence (Q92793 1081-1197): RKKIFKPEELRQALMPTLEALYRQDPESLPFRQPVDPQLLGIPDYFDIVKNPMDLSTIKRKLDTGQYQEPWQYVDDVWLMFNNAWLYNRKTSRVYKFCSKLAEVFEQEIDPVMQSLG
- experiment: In vitro CBP inhibition (AlphaScreen, biotinylated H4-tetraacetyl peptide)
- Assay type: binding
- reported_conditions: Table 30; read-out: CRREBBP IC50
pIC50: −log10 of the molar value.

Data request: Output pIC50 of Cn1cc(-c2cnn(CS(C)(=O)=O)c2)c(-c2ccccc2)cc1=O [Example 129]
Data returned: > 6.30

Data request: Output pIC50 of Cc1sc2c(c1C)C(c1ccc(Cl)cc1)=N[C@@H](CC(=O)OC(C)(C)C)c1nnc(C)n1-2 [JQ-1, reference compound]
Data returned: < 5.30

Data request: Output pIC50 of Cn1cc(-c2cnn(Cc3ccccc3)c2)c(-n2ccnc2)cc1=O [Example 94]
Data returned: > 6.30

Data request: Output pIC50 of CCNc1ncc(-c2cc(=O)n(C)cc2-c2cnn(-c3ccccc3C#N)c2)cn1 [Example 323]
Data returned: > 6.30

Data request: Output pIC50 of CC(c1ccccc1)n1cc(-c2cn(C)c(=O)cc2N2CCOCC2)cn1 (centres unmarked) [Example 43]
Data returned: > 6.30

Data request: Output pIC50 of Cn1cc(-c2cnn(-c3ccccc3S(C)(=O)=O)c2)c(-c2ccc(Cl)cc2)cc1=O [Example 286]
Data returned: > 6.30

Data request: Output pIC50 of Cn1cc(-c2cnn(Cc3ccccc3)c2)c(-c2ccon2)cc1=O [Example 121]
Data returned: > 6.30

Data request: Output pIC50 of CC(c1ccccc1)n1cc(-c2cn(C)c(=O)cc2N2CCCC2)cn1 (centres unmarked) [Example 41]
Data returned: > 6.30
